Measured values drawn from PubChem BioAssay (NCI) for this set.

# Tested on: NCI-H460 lung
# testName: NCI tumour cell line growth inhibition, 48 h
Each entry below carries its recorded TGI.

[
  {
    "molecule": "COc1cc(C)cc2c1[nH]c1ccccc12",
    "assayedSystem": "NCI-H460 lung",
    "reading": "> 25 µM"
  },
  {
    "molecule": "NC1CCCCC1N.O=C([O-])c1cc(S(=O)(=O)Nc2cc(S(=O)(=O)[O-])cc3cc(S(=O)(=O)[O-])cc(O)c23)ccc1[O-].[Pt+4]",
    "assayedSystem": "NCI-H460 lung",
    "reading": "> 100 µM"
  },
  {
    "molecule": "C=CCCCCCCCC(O)C1C[C@H](O)C(CCCCC)O1 (some centres undefined)",
    "assayedSystem": "NCI-H460 lung",
    "reading": "37.2 µM"
  },
  {
    "molecule": "Cn1c(=O)c2ccccc2c2ccccc21",
    "assayedSystem": "NCI-H460 lung",
    "reading": "> 100 µM"
  },
  {
    "molecule": "O=C(NC/C(Cl)=C/Cl)Nc1c2ccccc2nc2ccccc12",
    "assayedSystem": "NCI-H460 lung",
    "reading": "> 100 µM"
  }
]

// below: TGI requested for another molecule
molecule CCOC(=O)Nc1cc(NC(/C=N/NC(C)=O)C(=O)OCC)c(OC)cc1NC(C)=O (centres undefined) , TGI observed: > 100 µM

###

# Tested on: UO-31 renal
# testName: NCI tumour cell line growth inhibition, 48 h
attributeMeasured: TGI

molecule CC(C)(C)C1=NC(=P(c2ccccc2)(c2ccccc2)c2ccccc2)C(=O)O1 , TGI observed: > 100 µM

molecule C1OC1C1CO1 (centres undefined) , TGI observed: > 100 µM

###

# System: COLO 205 colon
# testName: NCI tumour cell line growth inhibition, 48 h
attributeMeasured: TGI (µM)
Field: numeric (µM). Do not append units.

[
  {
    "cpdSmiles": "CC(=O)OCc1cnc2c3c(nc4ccccc4c13)C(=O)c1cccnc1-2",
    "reading": 1.01
  },
  {
    "cpdSmiles": "CSc1nc(N)cc(Oc2ccc(-c3nc(Nc4cccc(C(F)(F)F)c4)n[nH]3)cc2)n1",
    "reading": 4.05
  }
]

compound O=C(N=Nc1c(O)[nH]c2ccccc12)C(O)(c1ccccc1)c1ccccc1 , TGI observed: 33.3

compound COc1cc2c(/C=C3\C(=O)N(C)c4ccc(O)cc43)c[nH]c2cc1C , TGI observed: 16.8

compound Cc1cc2nc(N3C(=O)/C(=C/c4ccc(Oc5ccccc5)cc4)N=C3c3ccccc3)sc2cc1C , TGI observed: 47.6

compound COC(=O)c1cc(C)n(CN(Cn2nc(C(=O)OC)cc2C)c2ccccc2)n1 , TGI observed: 32

###

Each entry below carries its recorded TGI.
# System: SF-268 CNS
# testName: NCI tumour cell line growth inhibition, 48 h

[
  {
    "compound": "Cc1cc(C)c2c(c1)CC1(Cc3c(ccc(C)c3C)C1=O)C2=O (configuration not stated)",
    "TGI": "> 100 µM"
  }
]

compound N[C@H]1C[C@@H]1c1ccc(-c2cccc(O)c2)cc1 , TGI observed: > 100 µM

compound CCNCC(O)COc1ccc2c(c1)[n+]([O-])nc(N)[n+]2[O-] (configuration not stated) , TGI observed: > 100 µM

compound Cc1cc(C)nc(NS(=O)(=O)c2ccc(NC(=O)c3cccc4c(Nc5ccc(S(=O)(=O)Nc6nc(C)cc(C)n6)cc5)c5ccc(Cl)cc5nc34)cc2)n1 , TGI observed: > 100 µM
